Readings of protein stability index for the listed variants
B1: GLTSCR2 (parent)
chain: FQRRNMIEPRERAKFKRKYKVKLV

- Variants of: B1
- experiment-description: protein stability index of a GFP-peptide fusion (GPS, HEK-293T) (PSI 1-6); higher = more stable;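 also: lentivirally expressed fusions sorted by FACS into six bins by GFP to DsRed ratio, PSI derived from sequencing read proportions per bin multiplied by bin number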
- run-parameters: c terminus: a fixed tail appended
quantity-measured: protein stability index

# sequence-variant, assay-value
rows = [
    ("Q2W", 1.84),
    ("K16T", 2.29),
    ("P9N", 2.34),
    ("R17H", 1.89),
    ("M6S", 3.25),
    ("F1K", 2.96),
    ("R10W", 1.76),
    ("K16G", 2.18),
    ("L23I", 2.52),
    ("P9Y", 1.67),
    ("R12H", 2.19),
    ("Q2V", 1.57),
    ("R10N", 1.63),
    ("K20Q", 1.93),
    ("R17P", 2.46),
    ("F1T", 3.11),
    ("K18A", 2.25),
    ("K14F", 2.77),
    ("K22Q", 2.38),
    ("P9C", 2.14),
    ("K14C", 1.26),
    ("V24S", 2.62),
    ("F15S", 3.08),
    ("F1Q", 2.99),
    ("P9S", 2.33),
    ("F15D", 2.32),
    ("V21R", 2.86),
    ("F15Q", 2.96),
    ("R12P", 1.72),
    ("I7H", 1.87),
    ("R3W", 1.58),
    ("Q2L", 1.94),
    ("Y19L", 2.75),
    ("R3L", 2.37),
    ("Q2E", 2.3),
]
